src = PubChem BioAssay (NCI)

# System: UO-31 renal
# Method summary: NCI tumour cell line growth inhibition, 48 h
Listed here: items and their measured TGI.

Compound	Assayed system	TGI
O=C(O)c1ccc(Nc2c3ccccc3nc3ccccc23)cc1	UO-31 renal	> 100 µM
Cc1ccc(NC(=O)C(=O)C(C(=O)c2ccc3ccccc3c2)C2OC(=O)c3ccccc32)cc1C (stereo not drawn)	UO-31 renal	27.6 µM
Cc1cc(C)n(C(=C(C(Cl)=C(Cl)Cl)[N+](=O)[O-])n2nc(C)cc2C)n1	UO-31 renal	11.3 µM
CN(C(=O)C1=CCC2(CC1)OCCO2)c1ccccc1OS(=O)(=O)C(F)(F)F	UO-31 renal	> 100 µM
COC(=O)C1=C(O)c2cc(OC)c(OC)cc2C(c2ccc(OC)c(OC)c2)C1 (stereo not drawn)	UO-31 renal	> 100 µM
COc1cc(OC)c(-c2ccc(OCc3ccccc3)c3c(OC)cc(C)cc23)c2c1C(C)=N[C@H](C)C2	UO-31 renal	2.63 µM
CCN(CC)CCOc1ccc(-c2nc3cc(Cl)ccc3s2)cc1	UO-31 renal	3.37 µM
O=[N+]([O-])c1ccc(C2=Nn3cnnc3SC2)o1	UO-31 renal	36.5 µM
COc1ccc2c3c([nH]c2c1[N+](=O)[O-])C(C)=NCC3	UO-31 renal	> 100 µM
Cc1ccc(C)c(C2=C(c3cn(C)c4ccccc34)C(=O)NC2=O)c1	UO-31 renal	> 25 µM
Cc1c([N+](=O)[O-])ccc2c(NCCCN(C)C)ccnc12	UO-31 renal	30.5 µM
Cn1nc(N)c2cc([C@@H]3Nc4ccc5[nH]ncc5c4[C@H]4C5CCC(C5)[C@@H]34)ccc21 (stereo partly drawn)	UO-31 renal	40.8 µM
CC(=O)O[C@H]1C[C@H]2[C@@H](OC(C)=O)/C=C3\C[C@](C)(C(=O)[C@H](O)C(=C1C)C2(C)C)[C@@H](O)C[C@@H]3OC(=O)[C@H](O)[C@H](c1ccccc1)N(C)C	UO-31 renal	> 100 µM
Cc1cc2c(cc1Cl)SC(NS(=O)(=O)c1ccc(Cl)cc1)=NS2(=O)=O	UO-31 renal	> 100 µM
CCOc1cc2c(OCc3ccccc3)cc3c4cc(OC)c(OC)cc4c[n+](C)c3c2cc1OC	UO-31 renal	> 80.4 µM
CS(=O)(=O)Nc1ccc2c(c1)oc(=O)c1ccccc12	UO-31 renal	> 100 µM
CN1CCN(C(=O)CCNC(=O)Cc2ccc(C(=O)c3ccccc3)cc2)CC1	UO-31 renal	> 100 µM
O=S1(=O)C[C@H](O)[C@H](O)CS1	UO-31 renal	> 100 µM
CC(C)(C)[Si](OC1CC(n2cnc3c(N)ncnc32)OC1CO)(c1ccccc1)c1ccccc1 (stereo not drawn)	UO-31 renal	68.1 µM
CCCCS(=O)CCC(N)P(=O)(O)O (stereo not drawn)	UO-31 renal	> 100 µM
O=C(Nc1nc2ccc(C(F)(F)F)cc2s1)c1cc(Cl)ccc1O	UO-31 renal	8.79 µM
CN(C)c1nc2ccccc2[nH]1	UO-31 renal	> 100 µM
Cc1nn(-c2ccccc2)c2nc(N3CCOCC3)nnc12	UO-31 renal	> 100 µM
O=C(C=P(c1ccccc1)(c1ccccc1)c1ccccc1)c1ccc(-c2cccc([N+](=O)[O-])c2)s1	UO-31 renal	> 100 µM
CCc1cc2c(oc3cc4ccccc4cc32)c(=O)[nH]1	UO-31 renal	> 10 µM
CC(C)CC1C(=O)NCCC(NC(=O)C(Cc2ccc(OC(C)(C)C)cc2)NC(=O)OC(C)(C)C)C(=O)NC(Cc2ccccc2)C(=O)NC(Cc2ccccc2)NC1=O (stereo not drawn)	UO-31 renal	> 100 µM
CN=c1nc2sc3c(c2c(NC(=S)NC)s1)CCCC3	UO-31 renal	> 100 µM
CC(=O)N(C)c1ccc(Nc2cc(C)[nH]c3ccc4ncnc4c23)cc1	UO-31 renal	56.3 µM
CCCCC1=NNC(=O)C1	UO-31 renal	> 100 µM
OC1[C@@H]2[C@@H](O)[C@H](O)[C@@H](O)N2C[C@@H]1O (stereo partly drawn)	UO-31 renal	> 100 µM
CCCCCCCCCCCCCC1=NC(C)(C)CN1C(C)C	UO-31 renal	2.69 µM
C=C1CC[C@@H]2[C@](C)(COC(C)=O)[C@H](OC(C)=O)CC[C@@]2(C)[C@@H]1CC(Sc1ccccc1)C1=CCOC1=O (stereo partly drawn)	UO-31 renal	2.53 µM
Nc1c2c(nc3cc(F)c(F)cc13)CCC2	UO-31 renal	20.7 µM
